- Test system: Plasmodium berghei
- assay-name: Luciferase/luciferin-expressing antifolate-resistant parasites were used to infect a culture of HepG2 cells that were pre-incubated with compounds. Infected hepatocytes emit light due to the luciferase reaction. Assay results are presented as the percent inhibition of light emission compared to control. […]
- Type: functional
- study-conditions: sporozoite, HEPG2TOX_HILL_SLOPE 2.96, HEPG2TOX_R_SQUARED 0.569, read-out: LUCIFERASE INFECTION ASSAY - IC50
recorded-endpoint: IC50

Annotate the compound Cc1cccc2c(=O)nc(CSc3ncnc4sc(-c5ccccc5)cc34)[nH]c12 with its measured IC50.
> 10 µM

* * *

- Test system: Plasmodium berghei
- assay-name: Luciferase/luciferin-expressing antifolate-resistant parasites were used to infect a culture of HepG2 cells that were pre-incubated with compounds. Infected hepatocytes emit light due to the luciferase reaction. Assay results are presented as the percent inhibition of light emission compared to control. […]
- Format: functional
- study-conditions: sporozoite, PBLUC_HILL_SLOPE 2.24, PBLUC_R_SQUARED 0.373, read-out: LUCIFERASE INFECTION ASSAY - IC50
pIC50: −log10 of the molar value.
recorded-endpoint: pIC50

# return recorded pIC50 for entry O=C(c1ccccc1)N1[C@@H]2CC[C@@H](C2)[C@H]1c1nc2cccc(OCc3ccccc3)c2[nH]1
< 5.00

* * *

- Test system: Plasmodium berghei
- assay-name: Luciferase/luciferin-expressing antifolate-resistant parasites were used to infect a culture of HepG2 cells that were pre-incubated with compounds. Infected hepatocytes emit light due to the luciferase reaction. Assay results are presented as the percent inhibition of light emission compared to control. […]
- Assay type: functional
- study-conditions: sporozoite, read-out: LUCIFERASE INFECTION ASSAY - IC50
recorded-endpoint: IC50

Tell me measured IC50 for CC(C)[C@H](NC(=O)c1ccc(C(C)(C)C)cc1)C(=O)Nc1nc2ccccc2[nH]1 please.
> 10 µM

Supply reported IC50 belonging to this compound: Cc1cn2c(/C=C/C(=O)Nc3cccc(Cl)c3N3CCOCC3)c(C)nc2s1
> 10 µM

Return the recorded IC50 value; entry: O=C(Nc1ccc(F)c(Cl)c1)N1CCc2nc(Nc3cc(Cl)cc(Cl)c3)ncc2C1
> 7.07 µM

Using the record for Cc1nc2ccccn2c1C(=O)N/N=C/c1ccccc1O , state its measured IC50.
10.1 µM

Give the reported value of IC50 for this record: CC(=O)Nc1cc(-c2ccc(C(=O)NC3CC3)cc2)cn2c(-c3ccc(F)c(Cl)c3)cnc12
> 7.13 µM

Let me know recorded IC50 for O=[N+]([O-])c1ccc(NN=C2CCSC2)c(S(=O)(=O)Nc2ccc(Cl)cc2)c1 , thanks.
> 10 µM

Write down IC50 measured for item O=C(CN(Cc1ccco1)C(=O)c1ccc(-c2cccc(C(F)(F)F)c2)o1)Nc1ccccc1Br
> 10 µM

Complete the entry with IC50 for c1ccc(-c2csc3nc(-c4ccccn4)nc(Sc4nnc(-c5ccco5)o4)c23)cc1
> 10 µM

Answer with reported IC50 of CCCN(CC(=O)N1N=C(c2ccc(C)cc2)CC1c1ccco1)Cc1nnc(-c2ccco2)o1 (stereo unspecified)
> 10 µM

For the compound CC1CCC(C(C)C)C(OCC(O)CN2C(C)CCCC2C)C1 (stereo unspecified) , report IC50.
> 9.12 µM

Report IC50, nothing else, for this compound: Cc1ccc(C(C)CCN2CCc3c(c(C(=O)NCc4nccs4)nn3Cc3ccccc3)C2)o1 (stereo unspecified)
> 6.74 µM

Specify reported IC50 for the compound shown: Cc1cc(NNC(=O)c2ccccc2Cl)nc2c1c(-c1cccs1)nn2C
> 8.29 µM

Find the measured IC50 of CN(Cc1nc(-c2ccccc2)c2ccccc2n1)Cc1nc(=O)c2ccccc2[nH]1 and report it.
> 10 µM

Quickly give me recorded IC50 for CCOC(=O)c1sc(SC)c2c1CCc1conc1-2
> 11.2 µM

Give a short answer stating reported IC50 for Cc1c(C)n(Cc2ccccc2)c2ncn3nc(-c4ccccn4)nc3c12 .
> 9.31 µM

Give the value of IC50 reported for the following: N#CCSC1=CC(=O)CC(c2ccccc2)S1 (stereo unspecified)
> 12.6 µM

State, in one line, measured IC50 of CN(C)c1ccc(C2CC(=O)c3ccccc3N2)cc1 (stereo unspecified)
> 12.4 µM

Report IC50, nothing else, for this compound: CCn1c(SCc2nc3ccccc3c(=O)n2CC(N)=O)nnc1C1CC1
> 10 µM

Identify IC50 associated with the compound CC(C)c1ccc2c(c1)/C(=N/Nc1ccc(S(=O)(=O)Nc3ccc(Cl)cc3)cc1[N+](=O)[O-])C(=O)N2
> 10 µM

Provide measured IC50 value, entry: CCc1nnc(NC(=O)C2CCCN2S(=O)(=O)c2ccc(OC)cc2)s1 (stereo unspecified)
4.85 µM

Supply recorded IC50 for N=C1C(=S)N(c2ccc(Cl)c(Cl)c2)C(=O)N1c1ccc(Cl)c(Cl)c1 here.
> 7.87 µM
